system: NPC1-NSCs; test: Amplex-red cholesterol assay in NPC1 neural stem cells; assay type: cell-based, human; conditions: human NPC1 neural stem cells; values given under dosage recommendations; read-out: IC50 on reduction of cholesterol accumulation, Amplex-red cholesterol assay
pIC50: −log10 of the molar value.

>  <structure>
Cc1cc(O)cc2c1O[C@](C)(CCC[C@H](C)CCC[C@H](C)CCCC(C)C)CC2

>  <pIC50>
4.82

$$$$
